These data points were gathered from PubChem BioAssay.

- Test system: XIP peptide (Xip251-270) binding
- EXPERIMENT_SUMMARY: XIP fragment 251-270 binding compounds – biochemical, small-molecule microarray, fluorescence 635/667 nm, 0.1 µg/mL protein, primary screen (AID 1182)
- CONDITION_PARAMETERS: fluorescent protein binding, 635 nm, higher = more signal, called active from +8 up or from −8 down
Reported composite z-score is given for each of the following compounds.
MEASUREMENT_KIND: composite z-score

| SUBSTANCE_SMILES | EXPERIMENTAL_RESULT |
| --- | --- |
| COC(=O)[C@@]1(Cc2ccc(F)cc2)[C@H]2c3cc(C(=O)N(C)C)n(CCCNc4ccc(C(F)(F)F)cc4Cl)c3C[C@H]2CN1C(=O)c1ccccc1 | 0.915 |
| [N-]=[N+]=NCc1ccccc1C[C@]1(C(N)=O)N=C(c2ccc(OCCCO)cc2)O[C@H]1c1ccccc1N=[N+]=[N-] | 2.56 |
| O=C1C[C@@](C(=O)O)(c2ccc([N+](=O)[O-])cc2)[C@@H](c2ccc(CO)cc2I)N1C1CCCCC1 | -0.183 |
| O=c1cccc(-c2cccc3ccccc23)o1 | -0.738 |
| O=C(N1CCCCC1)[C@]1(CCS(=O)(=O)c2ccccc2)N=C(c2ccc(OCCCO)cc2)O[C@@H]1c1ccccc1 | 1.29 |
| COc1ccc([Si](C)(C)[C@H]2[C@H](CCO)O[C@@]3(C(=O)N(Cc4cccc(N5C(=O)c6cccc7cccc5c67)c4)c4ccccc43)[C@@H]2C)cc1 | 0.834 |
| COc1ccc([Si](C)(C)[C@H]2[C@H](CCO)O[C@@]3(C(=O)N(Cc4ccccc4)c4ccc(N5C(=O)COc6ccccc65)cc43)[C@@H]2C)cc1 | 0.577 |
